Source: paper PMC7176418

# system: Snail (Homo sapiens, UniProt O95863, R174A)
# Sequence (O95863 whole entry R174A): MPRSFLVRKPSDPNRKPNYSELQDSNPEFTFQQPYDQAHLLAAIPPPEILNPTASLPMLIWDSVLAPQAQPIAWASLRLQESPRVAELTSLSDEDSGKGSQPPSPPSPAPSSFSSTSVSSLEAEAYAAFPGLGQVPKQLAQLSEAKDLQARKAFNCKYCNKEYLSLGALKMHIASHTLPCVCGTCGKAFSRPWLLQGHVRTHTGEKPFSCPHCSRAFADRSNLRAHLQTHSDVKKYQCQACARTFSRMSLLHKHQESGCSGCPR
# experimental.details: biolayer interferometry
value.kind: Kd (nM)
Answers are plain numbers, in nM.

Ask: Which Kd is reported with Snail (Homo sapiens, UniProt O95863, R174A) for this entry: Cc1cc(Nc2nc(SCc3ccc(C(=O)Nc4ccc(F)cc4N)cc3)nn3cccc23)n[nH]1 ?
Reply: 3000

====

# system: UniProtKB O43623
# Sequence (O43623 whole entry): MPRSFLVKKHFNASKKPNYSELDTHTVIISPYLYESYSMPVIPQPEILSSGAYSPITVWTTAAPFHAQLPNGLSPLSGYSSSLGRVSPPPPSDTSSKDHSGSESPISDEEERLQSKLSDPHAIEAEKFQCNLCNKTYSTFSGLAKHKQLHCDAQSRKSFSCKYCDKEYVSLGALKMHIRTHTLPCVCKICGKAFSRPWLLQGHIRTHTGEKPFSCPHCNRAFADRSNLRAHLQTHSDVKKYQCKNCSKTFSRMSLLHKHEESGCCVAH
value.kind: pKd
Give bare numbers, as −log10 of the molar value.

Ask: Which pKd is reported with UniProtKB O43623 for this entry: Cc1cc(Nc2nc(SCc3ccc(C(=O)Nc4ccc(F)cc4N)cc3)nn3cccc23)n[nH]1 [CYD19] ?
Reply: 6.22
